src = ChEMBL document CHEMBL5380808

Experiment: Selectivity index, ratio of IC50 for cytotoxicity against human MRC5 cells to IC50 for antiproliferative activity against human MDA-MB-231 cells
Type: toxicity, cell-based
Settings: MRC5 cells and MDA-MB-231 cells, read-out: Ratio IC50
Recorded Metric: selectivity ratio
Just the number.

# count of solved cases: 3
Compound: CC(=O)c1nc(C(=O)NCCc2c[nH]c3ccccc23)cc2c1[nH]c1ccccc12
selectivity ratio: 3.53
//
Compound: CC(=O)c1nc(C(=O)OCCc2c[nH]c3ccccc23)cc2c1[nH]c1ccccc12
selectivity ratio: 4.02
//
Compound: COc1cc([C@@H]2c3cc4c(cc3[C@@H](O[C@@H]3O[C@@H]5CO[C@@H](C)O[C@H]5[C@H](O)[C@H]3O)[C@H]3COC(=O)[C@H]23)OCO4)cc(OC)c1O [ETOPOSIDE]
selectivity ratio: 3.68

Request: # input compound: "Cc1ccc(C(=O)c2nc(C(=O)NCCc3c[nH]c4ccccc34)cc3c2[nH]c2ccccc23)cc1" ; wanted: its selectivity ratio
Result: 4.98
